system-tested: Adenosine receptor A2b (Homo sapiens, UniProt P29275)
Sequence (P29275 whole entry): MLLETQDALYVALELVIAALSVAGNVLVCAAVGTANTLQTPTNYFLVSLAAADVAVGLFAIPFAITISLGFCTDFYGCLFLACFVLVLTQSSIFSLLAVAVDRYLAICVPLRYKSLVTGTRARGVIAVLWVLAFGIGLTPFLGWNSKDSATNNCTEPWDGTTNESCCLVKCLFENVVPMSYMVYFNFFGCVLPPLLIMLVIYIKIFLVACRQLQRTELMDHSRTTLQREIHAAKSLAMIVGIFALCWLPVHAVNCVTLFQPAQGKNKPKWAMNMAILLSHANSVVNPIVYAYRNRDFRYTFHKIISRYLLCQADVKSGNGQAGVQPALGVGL
assay-overview: Agonist activity at human adenosine A2B receptor expressed in FlpIn-CHO cells assessed as inhibition of forskolin-induced cAMP accumulation after 30 mins by fluorescence assay
pEC50: −log10 of the molar value.
reported-property: pEC50

CNC(=O)[C@H]1O[C@@H](n2cnc3c(NCC(c4ccccc4)c4ccccc4)nc(N)nc32)[C@H](O)[C@@H]1O = 6.70

1 = CNC(=O)[C@H]1O[C@@H](n2cnc3c(NCc4cccc(I)c4)nc(N)nc32)[C@H](O)[C@@H]1O
2 = CCNc1nc(N)nc2c1ncn2[C@@H]1O[C@H](C(=O)NC)[C@@H](O)[C@H]1O
**Query** // max by pEC50 over [ 1 , 2 ] // output: label of the selected item
**Result** 1

1 = CNC(=O)[C@H]1O[C@@H](n2cnc3c(NC4CCC4)nc(N)nc32)[C@H](O)[C@@H]1O
2 = CCCNc1nc(N)nc2c1ncn2[C@@H]1O[C@H](C(=O)NC)[C@@H](O)[C@H]1O
**Query** Could you tell me which of 1 and 2 has the lower pEC50 reading? // output: label of the selected item
**Result** 2
